Data provenance: PubChem BioAssay (NCI)

Assignment: determine reported TGI for the given compounds.
Tested on: RXF 393 renal
Assay: NCI tumour cell line growth inhibition, 48 h

Test item CO/C(=C1/NC(=O)C(Cc2ccc(O)c(Br)c2)N(C)C(=O)C(C)NC(=O)CCC/C=C(\C)CCC(C)OC1=O)c1ccccc1 (stereo unspecified) ; RXF 393 renal; reported TGI was 16.2 µM

Test item C=C(C)CCC(O)[C@](C)(O)[C@H]1[C@H](O)C[C@@]2(C)[C@@H]3CCc4c(cc(OC5OC(CO)C(O)C(O)C5O)c(O)c4C)C3(C)C(=O)C[C@]12C (stereo partly specified) ; RXF 393 renal; reported TGI was > 100 µM

Test item "COCCCNc1c2ccccc2nc2ccccc12" ; RXF 393 renal; reported TGI was 14.2 µM

Test item COc1nc(NC2OC(CO)C(O)C(O)C2O)c(N)c(=O)[nH]1 (stereo unspecified) ; RXF 393 renal; reported TGI was > 100 µM

Test item "O=C(CCN1CCCN(c2cnc3ccccc3n2)CC1)c1csc2ccccc12" ; RXF 393 renal; reported TGI was 37.5 µM

Test item "COc1cc(OC)c(/C=N\Nc2nc3ccccc3c(=O)n2-c2ccccc2)c(OC)c1" ; RXF 393 renal; reported TGI was 55 µM

Test item "COC(=O)Nc1nc2ccc(C(=O)c3ccc(F)cc3)cc2[nH]1" ; RXF 393 renal; reported TGI was > 100 µM

Test item "O=C(Nc1ccc(F)cc1)c1cc2c(cc1Cl)Sc1nccn1S2(=O)=O" ; RXF 393 renal; reported TGI was > 100 µM

Test item "CCOC(=O)c1cc([N+](=O)[O-])c(Sc2ncnc3nc[nH]c23)c([N+](=O)[O-])c1" ; RXF 393 renal; reported TGI was 23.3 µM

Test item CC(C)C(CCOS(=O)(=O)O)CCC(C)[C@H]1[C@@H](O)C(O)C2[C@]3(O)C[C@@H](O)C4(O)C[C@@H](O)CC[C@]4(C)C3CC[C@@]21C (stereo partly specified) ; RXF 393 renal; reported TGI was > 100 µM

Test item "Cc1ccc(-c2cc(=O)c(=O)[nH][nH]2)cc1" ; RXF 393 renal; reported TGI was > 100 µM

Test item "C[C@]12CC[C@H]3[C@@H](CC[C@]4(O)C[C@@H](O[C@@H]5O[C@H](CO)[C@@H](O[C@@H]6OC[C@@H](O)[C@H](O)[C@H]6O)[C@H](O)[C@H]5O)CC[C@]34C=O)[C@@]1(O)CC[C@@H]2C1=CC(=O)OC1" ; RXF 393 renal; reported TGI was 3.11 µM

Test item CCCCCCCCCCCCCCCC(=O)OC1C(O)C(O)C(O)C(O)C12CO2 (stereo unspecified) ; RXF 393 renal; reported TGI was > 100 µM

Test item CCc1ccccc1NC(=O)C(=O)C1C(=O)N(c2ccccc2)N=C1N (stereo unspecified) ; RXF 393 renal; reported TGI was > 100 µM

Test item "COc1cc2c(cc1[N+](=O)[O-])C(=O)C(Br)(Br)CCC2" ; RXF 393 renal; reported TGI was 4.51 µM

Test item "O=C(N/N=C/c1ccncc1)c1ccc(F)cc1" ; RXF 393 renal; reported TGI was > 40 µM

Test item C=C1CN2CCc3c([nH]c4ccccc34)C2CC1CC(=O)N(C)C (stereo unspecified) ; RXF 393 renal; reported TGI was > 309 µM

Test item "CC/C=C\C=C/C(=O)N/C=C/CCC" ; RXF 393 renal; reported TGI was > 100 µM

Test item "C/C(CCN(C)C)=N\OC(=O)c1ccccc1" ; RXF 393 renal; reported TGI was > 100 µM

Test item COc1cc(C2CC(c3cccc(Nc4ccnc5cc(Cl)ccc45)c3)=NN2c2ccccc2)cc(OC)c1OC (stereo unspecified) ; RXF 393 renal; reported TGI was > 100 µM

Test item "C=C1CC[C@@H]2[C@](C)(COC(=O)CCC(=O)O)CCC[C@@]2(C)[C@@H]1CCC1=CC(=O)OC1" ; RXF 393 renal; reported TGI was > 100 µM

Test item CC1OC(CO)(n2cnc3c(N)ncnc32)C(O)C1O (stereo unspecified) ; RXF 393 renal; reported TGI was > 100 µM

Test item "Cn1c(=O)cc(Nc2ccc(N)cc2)[nH]c1=O" ; RXF 393 renal; reported TGI was > 100 µM

Test item "[CH3][Hg]/[N]=C(/N)NC#N" ; RXF 393 renal; reported TGI was 5.13 µM

Test item "Cc1cc(N=Cc2c(CO)cnc(C)c2O)c(N=Cc2c(CO)cnc(C)c2O)cc1C" ; RXF 393 renal; reported TGI was > 100 µM

Test item NC1NCCC(=O)N1CCc1c[nH]c2ccccc12 (stereo unspecified) ; RXF 393 renal; reported TGI was 43.5 µM

Test item "CN(Cc1cnc2nc(N)nc(N)c2n1)c1ccc(C(=O)NCCCC(=O)O)cc1" ; RXF 393 renal; reported TGI was > 100 µM

Test item "O=C(Cc1nc2ccccc2o1)C(=O)Nc1ccc(Cl)cc1Cl" ; RXF 393 renal; reported TGI was > 100 µM

Test item "CCOc1ccc2c(c1)C(=O)c1c-2n(CCCN=[N+]=[N-])c(=O)c2cc([N+](=O)[O-])ccc12" ; RXF 393 renal; reported TGI was > 100 µM

Test item "COC(=O)C1=CC(=O)[C@@H]2CCCC[C@H]12" ; RXF 393 renal; reported TGI was > 100 µM

Test item CC(=O)OCC1OC(O[C@H]2C=C[C@@H](C(=O)OCc3ccccc3)n3c(=O)n(-c4ccccc4)c(=O)n32)C(OC(C)=O)C(OC(C)=O)C1OC(C)=O (stereo partly specified) ; RXF 393 renal; reported TGI was 4.07 µM
